- Assay summary: qHTS of pediatric cancer cell lines to identify multiple opportunities for drug repurposing: Primary screen for LAN-5 cells (AID 1347100)
- Experimental conditions: LAN-5 neuroblastoma viability, CellTiter-Glo luminescence, 48 h; series mostly up to 46 µM
Results filed as inconclusive are left out. Active and inactive are the calls of the source. Calls come from the whole dose curve; as a rule, active = well fitted cell-killing curve with a large enough effect; inconclusive = small, poorly fitted or top-dose-only effect; inactive = no such curve, though single readings can be large or run the other way.
The reply should name one outcome from active, inactive

Please review the entries below; each comes with its answer.
Mol	Qualitative label
COc1c(C)cnc(Cn2cnc3c(Cl)nc(N)nc32)c1C	active
Cc1cnc(-c2cc(N3CCN(C(=O)CCS(C)(=O)=O)CC3)ncc2Cl)c(C)c1	inactive
CC(C)C[C@@H](N)[C@H](O)C(=O)N[C@H](C(=O)N[C@H](C(=O)N[C@@H](CC(=O)O)C(=O)O)C(C)C)C(C)C	inactive
CC(C)(C)c1[nH]cnc1C=c1[nH]c(=O)c(=Cc2ccccc2)[nH]c1=O	active
CN(C)CCCNC(=O)c1ccc(-c2cc(O)c3ncccc3c2)cc1	inactive

Prompt: Name the outcome recorded for "COc1cc2nccc(Oc3ccc(NC(=O)Nc4cc(C)on4)c(Cl)c3)c2cc1OC" in the assay.
Completion: active

---

- Assay summary: Quantitative High-Throughput drug screen in 47 multiple myeloma cell lines against the NCATS MIPE library collection: SKMM1_PLB cell viability assay (AID 1919863); note: potency is the fitted concentration of half-maximal effect; nearly all actives have a fitted effect of over 35% in size
- Experimental conditions: SKMM1 myeloma viability, CellTiter-Glo ATP, 48 h
Records with an inconclusive call do not appear. Calls of active or inactive are those of the source. Calls come from the whole dose curve; as a rule, active = well fitted cell-killing curve with a large enough effect; inconclusive = small, poorly fitted or top-dose-only effect, or effect the other way; inactive = no such curve, though single readings can be large or run the other way.
Measured Potency accompanies every entry in the list below.

Compound	Potency
CN1C(=O)C(Cc2c[nH]c3ccccc23)NC1=S (configuration not stated)	0.418 µM (active)
Cc1cnc(Nc2cccc(CN3CCOCC3)c2)nc1Nc1cccc(S(=O)(=O)NC(C)(C)C)c1	7.43 µM (active)
O=c1[nH]c(=O)n([C@H]2C[C@@H](O)[C@@H](CO)O2)cc1C(F)(F)F	5.9 µM (active)
Cc1ccc(S(=O)(=O)Nc2nc3ccccc3nc2Nc2ccc3nsnc3c2)cc1	7.24 µM (active)
CC1(C)[C@H]2CC[C@]3(C)[C@@H](C(=O)C=C4[C@@H]5C[C@@](C)(C(=O)O)CC[C@]5(C)CC[C@]43C)[C@@]2(C)CC[C@@H]1O	11.8 µM (active)
CC(C)(O)CC(=O)NCCn1ccc2ncnc(Nc3ccc(Oc4cccc(C(F)(F)F)c4)c(Cl)c3)c21	23.5 µM (active)
COc1cc(Cl)cn2c(-c3cccc(NC4CNC4)n3)cnc12	9.35 µM (active)
O=C(Nc1ncc(SCCN2CCCC2)s1)[C@]1(c2ccc(S(=O)(=O)C3CC3)cc2)C[C@@H]1C1CCCCC1	23.5 µM (active)

Prompt: Report Potency for "COc1c(C)c2c(c(O)c1CC=C(C)CCC(=O)OCCN1CCOCC1)C(=O)OC2"
Completion: 4.18 µM (active)

Prompt: Report Potency for "CC(=O)Nc1cccc(-n2c(=O)n(C3CC3)c(=O)c3c(Nc4ccc(I)cc4F)n(C)c(=O)c(C)c32)c1"
Completion: 3.72 µM (active)

---

- Assay summary: Quantitative High-Throughput drug screen in 47 multiple myeloma cell lines against the NCATS MIPE library collection: KMS11_JCRBsus cell viability assay (AID 1919873); note: nearly all actives have a fitted effect of over 50% in size
- Experimental conditions: KMS11 myeloma viability, CellTiter-Glo ATP luminescence, 48 h; series mostly up to 45.8 µM
Results filed as inconclusive are left out. Activity calls are given as the source filed them. The call rests on the fitted dose curve; in most records, active means well fitted cell-killing curve with a large enough effect; inconclusive means small, poorly fitted or top-dose-only effect, or effect the other way; inactive means no such curve, though single readings can be large or run the other way.
The reply should name one outcome from T = active, F = inactive

Please review the entries below; each comes with its answer.
Mol	Qualitative label
CCN1CCN(c2ccc(Nc3cc(N(C)C(=O)Nc4c(Cl)c(OC)cc(OC)c4Cl)ncn3)cc2)CC1	F
Cc1ccc(NC(=O)c2ccc(CN3CCN(C)CC3)cc2)cc1Nc1nc(-c2cccnc2)cs1	T
N=C1SC(=Cc2ccc(-c3ccc4c(c3)C(=O)NC4=O)o2)C(=O)N1c1ccc(Br)cc1	F
Cc1cccc(Nc2nc(N[C@@H]3CCCC[C@H]3N)ncc2C(N)=O)c1	T

Prompt: Name the outcome recorded for "CN[C@H]1[C@@H](O[C@@H]2[C@H](O[C@@H]3[C@@H](O)[C@@H](O)[C@@H](N=C(N)N)[C@@H](O)[C@@H]3N=C(N)N)O[C@H](C)[C@@]2(O)C=O)O[C@@H](CO)[C@@H](O)[C@H]1O" in the assay.
Completion: F

Prompt: Name the outcome recorded for "CC1CCN(c2cc(N3CCN(C)CC3)ccc2NC(=O)c2cc(C#N)c[nH]2)CC1" in the assay.
Completion: F

Prompt: Name the outcome recorded for "CCNC(=O)[C@H]1O[C@@H](n2cnc3c(N)nc(NCCc4ccc(CCC(=O)O)cc4)nc32)[C@H](O)[C@H]1O" in the assay.
Completion: F

Prompt: Name the outcome recorded for "O=C(c1ccc(C(=O)N2CCC(N3CCCC3)CC2)c(Nc2ccccc2)c1)N1CCC(N2CCCC2)CC1" in the assay.
Completion: F

Prompt: Name the outcome recorded for "Cc1cccc(-c2[nH]c(C(C)(C)C)nc2-c2ccc3c(c2)OCO3)n1" in the assay.
Completion: T

Prompt: Name the outcome recorded for "C[C@H]1[C@H](O)O[C@@H]2O[C@@]3(C)CC[C@@H]4[C@H](C)CC[C@@H]1[C@@]24OO3" in the assay.
Completion: T

---

- Assay summary: Quantitative High-Throughput drug screen in 47 multiple myeloma cell lines against the NCATS MIPE library collection: JIM3_ECACC cell viability assay (AID 1918963; note: nearly all actives have a fitted effect of over 35% in size)
- Experimental conditions: JIM3 myeloma viability, CellTiter-Glo ATP, 48 h; series mostly up to 45.8 µM
Records with an inconclusive call do not appear. Active and inactive are the calls of the source. Calls follow the shape of the dose curve; as a rule, active = well fitted cell-killing curve with a large enough effect; inconclusive = small, poorly fitted or top-dose-only effect; inactive = no such curve, though single readings can be large or run the other way.
The reply should name one outcome from active, inactive

Please review the entries below; each comes with its answer.
Mol	Qualitative label
NC(=O)c1noc([C@H](CCCC2CCCCC2)CC(=O)NO)n1	active
O=C(O)CCC=CCC[C@@H]1[C@H](N2CCCCC2)[C@@H](O)C[C@@H]1OCc1ccc(-c2ccccc2)cc1	inactive
CC[C@H](NC(=O)[C@H](C)NC)C(=O)N1C[C@@H](O)C[C@H]1Cc1c(-c2[nH]c3cc(F)ccc3c2C[C@H]2C[C@H](O)CN2C(=O)[C@H](CC)NC(=O)[C@H](C)NC)[nH]c2cc(F)ccc12	active

Prompt: Name the outcome recorded for "CC(=O)NCCC(=O)N[C@@H](CCC(N)=O)C(=O)N[C@@H](CO)C(=O)N[C@@H](CCC(N)=O)C(=O)N[C@@H](CCC(N)=O)C(=O)N[C@H](C(=O)N[C@@H](Cc1ccccc1)C(=O)N[C@]1(C)CCCCCCC=CCCC[C@@](C)(C(=O)N[C@@H](CCC(N)=O)C(=O)N[C@@H](CC(N)=O)C(N)=O)NC(=O)[C@H](CC(C)C)NC(=O)[C@H](CC(C)C)NC(=O)[C@@H](CCCNC(=N)N)NC(=O)[C@H](Cc2c[nH]c3ccccc23)NC(=O)[C@H](CC(C)C)NC(=O)[C@H](CC(N)=O)NC1=O)[C@H](C)O" in the assay.
Completion: active

---

Measured parasite growth remaining, % of DMSO control (lower = more inhibition) accompanies every entry in the list below.
- Assay summary: qHTS profiling of the MIPE4 collection as inhibitors of Plasmodium falciparum (DD2) proliferation (AID 743345)
- Experimental conditions: P. falciparum Dd2 in erythrocytes, SYBR Green DNA, 72 h; at 28.5 µM (top of the series) unless noted
Field format: number, assumed %, no unit text.

Compound	Reported value
Cc1cnc(-c2cc(N3CCN(C(=O)CCS(C)(=O)=O)CC3)ncc2Cl)c(C)c1	93.9
CCCCC[C@H](O)C=C[C@H]1[C@H](O)CC(=O)[C@H]1CCCCCCC(=O)O	133
Cn1cnc(-c2cc3nccc(Oc4ccc(NC(=S)NC(=O)Cc5ccccc5)cc4F)c3s2)c1	23.6
COc1nccc(-c2c(-c3ccc(F)cc3)ncn2C2CCC(O)CC2)n1 (stereo unspecified)	80
CC1=C(CC(=O)O)c2cc(F)ccc2C1=Cc1ccc(S(C)=O)cc1 (stereo unspecified)	91.5

Prompt: Report parasite growth remaining, % of DMSO control (lower = more inhibition) for "Cn1cc(-c2ccc3nnc(Sc4ccc5ncccc5c4)n3n2)cn1"
Completion: 86.3

Prompt: Report parasite growth remaining, % of DMSO control (lower = more inhibition) for "O=C(c1ccc(F)c(F)c1Nc1ccc(I)cc1F)N1CC(O)([C@H]2CCCCN2)C1"
Completion: 11.1

---

- Assay summary: Quantitative High-Throughput drug screen in 47 multiple myeloma cell lines against the NCATS MIPE library collection: NCIH929_DSMZ cell viability assay (AID 1918978); note: nearly all actives have a fitted effect of over 35% in size; note: potency is the fitted concentration of half-maximal effect
- Experimental conditions: NCI-H929 myeloma viability, CellTiter-Glo ATP, 48 h; series mostly up to 45.8 µM
- Description: PI: Beverly A. Mock Ph.D. Laboratory of Cancer Biology and Genetics, Center for Cancer Research, National Cancer Institute, National Institute of Health, Bethesda, Maryland […] 5; Detector; 425V; Luminescence; Viewlux PerkinElmer. […] 1. […] Briefly, the corresponding myeloma cell lines were screened in 1,536-well plates with 500 cells, 5-uL per well for inhibition of cell viability (assessed by measuring ATP levels with CellTiterGlo). […]
Results filed as inconclusive are left out. The source made the active and inactive calls. The call rests on the fitted dose curve; in most records, active means well fitted cell-killing curve with a large enough effect; inconclusive means small, poorly fitted or top-dose-only effect; inactive means no such curve, though single readings can be large or run the other way.
Quantity name: Potency

Below, 5 compounds whose answers are already recorded.
Compound	Potency
Nc1ccn([C@@H]2O[C@H](CO)[C@@H](O)[C@H]2O)c(=O)n1	inactive
NC(=O)c1ncn([C@@H]2O[C@H](CO)[C@@H](O)[C@@H]2O)n1	inactive
COc1ccc(Cn2ccc3ccc(C(=O)NO)cc32)cc1	18.7 µM (active)
CCCCC(C=O)NC(=O)C(CC(C)C)NC(=O)OCc1ccccc1 (configuration not stated)	20.9 µM (active)
CNc1nc(-c2ccc3c(N)n[nH]c3c2)cc(N2C[C@@H](C(=O)NC3CCCCC3)CC[C@@H]2C)n1	1.18 µM (active)

Prompt: Report Potency for "COc1ccc2c(c1)c(C1=C(c3c[nH]c4ccccc34)C(=O)NC1=O)cn2CCCN(C)C"
Completion: 23.5 µM (active)

Prompt: Report Potency for "O=C(Nc1ccccc1)Nc1ccc(-c2ccc(C(=O)[C@H]3CCC[C@H]3C(=O)O)cc2)cc1"
Completion: inactive

Prompt: Report Potency for "Cn1c(=O)c(-c2c(Cl)cccc2Cl)cc2cnc(Nc3cccc(C(=O)O)c3)nc21"
Completion: inactive

Prompt: Report Potency for "Cc1ccc(C(=O)N(CCCN)[C@@H](c2oc3cc(Cl)ccc3c(=O)c2Cc2ccccc2)C(C)C)cc1"
Completion: 8.33 µM (active)

Prompt: Report Potency for "CN(C)c1ccccc1CN1CCCN(Cc2ccccc2N(C)C)C1c1ccncc1"
Completion: 14.8 µM (active)

Prompt: Report Potency for "C#CCN(C)CC1=Cc2ccccc2Oc2ccccc21"
Completion: inactive

Prompt: Report Potency for "CCOc1ccccc1N=Nc1c(C)[nH]n(-c2nc(-c3ccccc3)cs2)c1=O"
Completion: 0.264 µM (active)

Prompt: Report Potency for "Cc1cnc(Nc2cccc(CN3CCOCC3)c2)nc1Nc1cccc(S(=O)(=O)NC(C)(C)C)c1"
Completion: 1.87 µM (active)

Prompt: Report Potency for "CCN(CC)CCCCNc1nc2cc(Cl)c(Cl)cc2nc1-c1ccc(-c2cccs2)s1"
Completion: 7.43 µM (active)

Prompt: Report Potency for CN1CCN2c3ncccc3Cc3ccccc3C2C1 (configuration not stated)
Completion: inactive

Prompt: Report Potency for "COc1cc(F)c(C(C)C)cc1-c1ccc(C(F)(F)F)cc1CN1C(=O)O[C@H](c2cc(C(F)(F)F)cc(C(F)(F)F)c2)[C@@H]1C"
Completion: inactive

Prompt: Report Potency for "CCN(CCO)CCCOc1ccc2c(Nc3cc(CC(=O)Nc4cccc(F)c4)[nH]n3)ncnc2c1"
Completion: inactive

Values compiled from PubChem BioAssay (NCATS).
